# PROTOCOL: Therapeutic index, ratio of MHC for human RBC to MIC for Salmonella typhi DMST 22842
# STUDY CONDITIONS: human red blood cells (RBC), read-out: TI
ASSAY METRIC: selectivity ratio

• H-RWWRWWRRWWW-NH2 = < 0.02
• H-NGVQPKYKWWKWWKKWWW-NH2 = 1
• H-NGVQPKYKWWKWWKKWW-NH2 = 2
• H-NGVQPWYKWWKWWKKWW-NH2 = < 0.06
• H-NGVQPKYRWWRWWRRWW-NH2 = 2

The recorded selectivity ratio for H-RWWRWWRRWW-NH2 is < 0.02

The recorded selectivity ratio for H-NGVQPKYRWWRWWRRWWW-OH is < 0.25

The recorded selectivity ratio for H-NGVQPKYRWWRWWRRWWWW-NH2 is < 0.06

The recorded selectivity ratio for H-NGVQPKYRWWRWWRRWW-OH is < 0.25

----------
# PROTOCOL: Therapeutic index, ratio of MHC for human RBC to MIC for Staphylococcus aureus ATCC 25923
# STUDY CONDITIONS: human red blood cells (RBC), read-out: TI
ASSAY METRIC: selectivity ratio

- H-NGVQPKYRWWRWWRRWWWW-NH2: < 0.06
- H-NGVQPKYRWWRWWRRWWW-OH: < 0.25
- H-NGVQPKYKWWKWWKKWW-NH2: 1

The recorded selectivity ratio for H-NGVQPKYKWWKWWKKWWW-NH2 is < 0.5

----------
# PROTOCOL: Therapeutic index, ratio of MHC for human RBC to MIC for Escherichia coli ATCC 25922
# STUDY CONDITIONS: human red blood cells (RBC), read-out: TI
ASSAY METRIC: selectivity ratio

• H-NGVQPKYRWWRWWRRWWW-OH = < 0.25

The recorded selectivity ratio for H-RWWRWWRRWW-NH2 is < 0.02

The recorded selectivity ratio for H-NGVQPWYKWWKWWKKWW-NH2 is < 0.06

The recorded selectivity ratio for H-NGVQPKYRWWRWWRRWWWW-NH2 is < 0.06

----------
# Tested on: Staphylococcus epidermidis
# PROTOCOL: Antibacterial activity against Staphylococcus epidermidis ATCC 12228 assessed as growth inhibition after 24 hrs
# Format: functional
# STUDY CONDITIONS: Staphylococcus epidermidis, ATCC 12228, 24 h
MIC90 overview

Worked examples follow.
- H-RWWRWWRRWW-NH2: > 91 µg/mL
- H-NGVQPKY-OH: > 200 µg/mL

Query substance follows.
Given the substance H-RWWRWWRRWWW-NH2 and test system Staphylococcus epidermidis, the measured MIC90 is > 91 µg/mL

----------
# PROTOCOL: Therapeutic index, ratio of MHC for human RBC to MIC for Staphylococcus aureus ATCC 25923
# STUDY CONDITIONS: human red blood cells (RBC), read-out: TI
selectivity ratio overview

Worked examples follow.
- H-NGVQPWYKWWKWWKKWW-NH2: < 0.06
- H-RWWRWWRRWWW-NH2: < 0.02

The recorded selectivity ratio for H-NGVQPKYRWWRWWRRWW-NH2 is 0.5
